Source of measurements: patent US20120094909A1

Target: T1, human PCSK9 (proprotein convertase subtilisin kexin type 9) (human, UniProt Q8NBP7 31-692)
T1 construct: Directly immobilized (SPR ProteOn), biotinylated (BLI), or in solution, depending on the assay; also called hPCSK9
T1 sequence (Q8NBP7 31-692 limits assumed): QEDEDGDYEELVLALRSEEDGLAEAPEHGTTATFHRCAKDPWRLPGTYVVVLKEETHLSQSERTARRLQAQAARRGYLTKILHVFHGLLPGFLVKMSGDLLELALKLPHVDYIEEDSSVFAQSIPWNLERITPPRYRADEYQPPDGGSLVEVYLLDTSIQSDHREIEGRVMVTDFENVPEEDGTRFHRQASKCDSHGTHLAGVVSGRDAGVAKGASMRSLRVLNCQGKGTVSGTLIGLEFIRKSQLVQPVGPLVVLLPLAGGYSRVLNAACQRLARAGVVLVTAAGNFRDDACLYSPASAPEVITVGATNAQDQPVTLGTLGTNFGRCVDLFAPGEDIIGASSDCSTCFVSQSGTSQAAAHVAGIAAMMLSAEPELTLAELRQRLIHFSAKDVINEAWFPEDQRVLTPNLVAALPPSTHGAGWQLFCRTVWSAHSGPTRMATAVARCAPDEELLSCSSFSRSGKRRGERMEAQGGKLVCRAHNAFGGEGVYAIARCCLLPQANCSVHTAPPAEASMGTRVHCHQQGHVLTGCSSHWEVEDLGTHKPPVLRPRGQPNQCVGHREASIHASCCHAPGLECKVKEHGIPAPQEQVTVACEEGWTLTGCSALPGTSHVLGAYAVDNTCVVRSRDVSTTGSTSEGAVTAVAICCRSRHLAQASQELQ
Assay: BLI, biotinylated hPCSK9 on sensor tips
measured property: kon (M⁻¹ s⁻¹)
Report the figure in M⁻¹ s⁻¹ without appending any unit label.

Reference set, count: 4
Input 2382D05 (designed binder, Anti-PCSK9 Adnectin, His6-tagged; Same entry as 2451B06) MGVSDVPRDLEVVAATPTSLLISWDAPADGGYGYYRITYGETGGNSPVQEFTVPVSKGTATISGLKPGVDYTITVYAVEFDFPGAGYYHRPISINYRTEIDKPSQHHHHHH . Output kon: 505000

Input 2381B04 (designed binder, Anti-PCSK9 Adnectin, His6-tagged) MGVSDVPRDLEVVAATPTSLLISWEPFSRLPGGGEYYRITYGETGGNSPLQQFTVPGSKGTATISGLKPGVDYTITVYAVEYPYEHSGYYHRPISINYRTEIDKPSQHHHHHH . Output kon: 309000

Input ATI001175 (designed binder) MGVSDVPRDLEVVAATPTSLLISWDPPSHAYGYYRITYGETGGNSPVQEFTVPIGKGTATISGLKPGVDYTITVYAVEYPWKGSGYYHRPISINYRTEIDKPSQHHHHHH . Output kon: 656000

Input 2382F05 (designed binder, Anti-PCSK9 Adnectin, His6-tagged) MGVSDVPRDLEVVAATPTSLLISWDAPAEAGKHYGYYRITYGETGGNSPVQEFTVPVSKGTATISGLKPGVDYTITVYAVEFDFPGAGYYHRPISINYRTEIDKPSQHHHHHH . Output kon: 244000

We next turn to a different binder, shown below.
Input ATI001119 (designed binder, PEGylated on the cysteine of the C-terminal tail (marked by asterisk in Table 5 as having been pegylated; PEG not specified), Anti-PCSK9 Adnectin, cysteine mutant of 2012A04, His6-tagged; also called 2012A04 Cys mut) MGVSDVPRDLEVVAATPTSLLISWRPPSNGHGYYRITYGETGGNSPVQEFTVPVNEGTATISGLKPGVDYTITVYAVEFPFKWSGYYHRPISINYRTGSGCHHHHHH . Output kon: 81900
